CONDITION: 298.15 K; 100 kPa; Liquid; Vibrating tube method
Response key: TRUE means mass density >= 800 kg/m3; FALSE means mass density < 800 kg/m3.

> print(dat)
                                  compound  category
1   N#CCCc1ccccc1 [3-phenylpropanenitrile]      TRUE
2       N#CCc1ccccc1 [benzeneacetonitrile]      TRUE
3                       CCCCCCCCC [nonane]     FALSE
4                        CCCCCCC [heptane]     FALSE
5                 C1CCCCCCC1 [cyclooctane]      TRUE
6                        CCCCCCCC [octane]     FALSE
7  CC(C)CC(C)(C)C [2,2,4-trimethylpentane]     FALSE
